tested on: 958767-090-R-J1-PDC spheroid growth; assay: Anticancer human tumor 958767-090-R-J1-PDC patient-derived head and neck squamous carcinoma cell line growth inhibition [IpAb]; details: second compound 10 µM; first compound 0.0316 µM; hits give low values; spheroids with HUVEC and MSC;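 note: spheroids exposed to agents for 7 days; 100% = DMSO vehicle control wells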
Reported viability, T/C values follow for various compounds

compound	viability, T/C (%)
Cc1nc(NC(=O)N2CCCC2C(N)=O)sc1-c1ccnc(C(C)(C)C(F)(F)F)c1 (stereo not drawn) + CC(C)NCC(C(=O)N1CCN(c2ncnc3c2C(C)CC3O)CC1)c1ccc(Cl)cc1	31.6
COc1c(OCCCN2CCOCC2)ccc2c3n(c(=NC(=O)c4cnc(N)nc4)nc12)CCN3 + CC(C)NCC(C(=O)N1CCN(c2ncnc3c2C(C)CC3O)CC1)c1ccc(Cl)cc1	14.1
Cn1nccc1Nc1nccc(-c2ccn(C(CO)c3ccc(Cl)c(F)c3)c(=O)c2)n1 (stereo not drawn) + CC(C)NCC(C(=O)N1CCN(c2ncnc3c2C(C)CC3O)CC1)c1ccc(Cl)cc1	44.7

Source of measurements: PubChem BioAssay AID2060336
